# SYSTEM_UNDER_TEST: sEH (HEP-G2) (Homo sapiens, UniProt P34913)
# Construct: 1 μg of total cell homogenate diluted in 100 μl of PBS; endogenous in cells
# PROTOCOL_TEXT: sEH activity in HEP-G2 cell lysates (14(15)-EET-d11 to DHET-d11, LC-MS/MS)
# TEST_SETTINGS: HEP-G2 cell homogenate, (±)14(15)-EET-d11 substrate, DHET formation by LC-MS/MS
REPORTED_METRIC: pIC50
# pIC50 = -log10(concentration in molar units)

Lookup: Name the recorded pIC50 for O=C(Nc1cccc2c(=O)cc(-c3nnn[nH]3)oc12)c1ccc(OCCCCc2ccccc2)cc1 .
Found: 4.85

###

# SYSTEM_UNDER_TEST: PPARγ-LBD / CBP-derived peptide (Homo sapiens, UniProt P37231)
# Construct: 12 nM recombinant PPARγ-LBD fused to N-terminal GFP as FRET acceptor
# Sequence (P37231 238-503 limits assumed): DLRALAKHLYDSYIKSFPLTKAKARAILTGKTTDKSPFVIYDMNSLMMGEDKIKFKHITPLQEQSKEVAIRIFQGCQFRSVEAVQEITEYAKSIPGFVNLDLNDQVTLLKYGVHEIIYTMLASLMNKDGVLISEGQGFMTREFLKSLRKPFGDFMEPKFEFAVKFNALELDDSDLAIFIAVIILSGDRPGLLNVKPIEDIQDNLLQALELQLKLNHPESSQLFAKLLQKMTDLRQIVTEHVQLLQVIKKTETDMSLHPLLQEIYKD
# PROTOCOL_TEXT: PPARγ coactivator (CBP) recruitment assay, HT-FRET
# Format: biochemical
# TEST_SETTINGS: rosiglitazone 1 μM, after 2 h; read-out: IC50 for antagonism of rosiglitazone induced CBP recruitment
REPORTED_METRIC: IC50 (µM)
Response body: numeric value in µM, unit text excluded.

Lookup: Name the recorded IC50 for COc1cc(C(=O)NS(=O)(=O)c2ccccc2C)ccc1Cc1cn(C)c2ccc(NC(=O)OC3CCCC3)cc12 .
Found: 4.7

###

For each of the compounds below, state its IC50.
# SYSTEM_UNDER_TEST: recombinant human sEH (Homo sapiens, UniProt P34913)
# Sequence (P34913 whole entry): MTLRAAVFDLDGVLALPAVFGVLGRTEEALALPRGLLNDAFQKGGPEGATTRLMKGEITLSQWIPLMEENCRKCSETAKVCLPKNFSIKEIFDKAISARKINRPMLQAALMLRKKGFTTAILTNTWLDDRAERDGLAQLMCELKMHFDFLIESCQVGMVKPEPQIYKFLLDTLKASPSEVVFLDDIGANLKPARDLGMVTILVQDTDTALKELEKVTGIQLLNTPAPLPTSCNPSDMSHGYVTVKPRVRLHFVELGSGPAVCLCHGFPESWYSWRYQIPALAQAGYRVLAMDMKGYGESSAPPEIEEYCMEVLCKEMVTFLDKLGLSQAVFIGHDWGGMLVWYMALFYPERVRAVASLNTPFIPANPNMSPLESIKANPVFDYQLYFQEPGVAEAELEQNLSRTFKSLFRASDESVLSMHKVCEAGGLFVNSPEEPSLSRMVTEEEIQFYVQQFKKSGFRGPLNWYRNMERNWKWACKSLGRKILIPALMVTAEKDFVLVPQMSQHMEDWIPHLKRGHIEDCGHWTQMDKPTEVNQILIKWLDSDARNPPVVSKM
# PROTOCOL_TEXT: Recombinant sEH activity (PHOME fluorescence assay)
# TEST_SETTINGS: PHOME 50 μM, 30 min preincubation at RT, read-out: sEH rec. IC50
Kindly format the answer as number then unit.

Lookup: Find IC50 (recombinant human sEH (Homo sapiens, UniProt P34913)) for the entry COc1cc(C(=O)NS(=O)(=O)c2ccccc2C)ccc1Cc1cn(C)c2ccc(NC(=O)OC3CCCC3)cc12
Found: 1.97 µM

Lookup: Find IC50 (recombinant human sEH (Homo sapiens, UniProt P34913)) for the entry O=C(Nc1cccc2c(=O)cc(-c3nnn[nH]3)oc12)c1ccc(OCCCCc2ccccc2)cc1
Found: 8.86 µM
